- System: SK-MEL-2
- Protocol Description: NCI tumour cell line growth inhibition, 48 h
Calls of active or inactive are those of the source. Cut-off read from the data, not from the text of the source: active = GI50 up to about 1.1 µM and inactive = higher.
Could you please pick one outcome from this set? active, inactive

Below, 2 compounds whose answers are already recorded.
compound=CC[C@@H](C)[C@@H]1NC(=O)C(C(C)=O)=C1O label_value=inactive
compound=COc1cc(CC(=O)c2cc3c(cc2-c2ccccc2)OCO3)cc(OC)c1OC label_value=inactive

Dear all, I need the recorded test outcome for OCc1cn(Cc2ccccc2)c2ccccc12 , thank you. inactive

Dear all, I need the recorded test outcome for CN(C)c1ccc(/C=C2\C[C@H]3[C@@H]4CCc5cc(O)ccc5[C@H]4CC[C@]3(C)C2=O)cc1 , thank you. inactive

* * *

- Tested on: SN12C
- Protocol Description: NCI tumour cell line growth inhibition, 48 h
The source made the active and inactive calls. No stated cut-off is given here; in the data, active = GI50 up to about 1.1 µM and inactive = higher.
Quantity Measured: GI50

Some solved cases for reference:
compound=COc1cc(/C=C/C(=O)c2sc(-n3nc(-c4ccccc4)cc3-c3ccccc3)nc2C)ccc1O result_value="> 100 µM (inactive)"
compound=O=C(CO)CC(=O)C(=O)Nc1cccc(C(F)(F)F)c1 result_value="> 100 µM (inactive)"
compound=O=C(c1ccccc1)n1c(Cc2ccccc2)nc2cc(C34CC5CC(CC(C5)C3)C4)ccc21 result_value="35.8 µM (inactive)"
compound="Cc1cn([C@H]2C[C@@H]3[C@@H](COC(CCl)N3O)O2)c(=O)[nH]c1=O (stereo partly specified)" result_value="> 100 µM (inactive)"
compound=C=CCNC(=S)NC=C(C(N)=O)C(N)=O result_value="> 100 µM (inactive)"
compound=Cc1nc2c(=O)[nH]c3ccc(Cl)cc3c2o1 result_value="> 100 µM (inactive)"
compound=N#C/N=C1/c2ccccc2/C(=N/C#N)c2cc(CO)ccc21 result_value="24.8 µM (inactive)"
compound=OCc1cn(Cc2ccccc2)c2ccccc12 result_value="26 µM (inactive)"
compound="COC(=O)C1CCC(=O)N1CN(C(C)=O)c1ccccc1Cl (stereo unspecified)" result_value="> 100 µM (inactive)"
compound=CCCCc1ccc(-n2sc3ncc([N+](=O)[O-])cc3c2=O)cc1 result_value="17.3 µM (inactive)"

// next item, GI50 requested
Would you mind telling me what GI50 value was observed for O=C(CNc1ccccn1)Nn1cnc2ccc(S(=O)(=O)Nc3ccccn3)cc2c1=O ? > 100 µM (inactive)

* * *

- Test system: HOP-18
- Protocol Description: NCI tumour cell line growth inhibition, 48 h
The source made the active and inactive calls. Cut-off read from the data, not from the text of the source: active = GI50 up to about 1.1 µM and inactive = higher.
Could you please pick one outcome from this set? active, inactive

Below, 5 molecules whose answers are already recorded.
molecule=COc1cc(/C=C/C(=O)c2sc(-n3nc(-c4ccccc4)cc3-c3ccccc3)nc2C)ccc1O test_target=HOP-18 label_value=inactive
molecule=O=C(CCCC(=O)Nc1ccc(Cl)cc1Cl)CC(=O)c1ccc2ccccc2c1 test_target=HOP-18 label_value=inactive
molecule=CCOC(=O)NC(=O)c1cn(CCOC(=O)NCCCCCCNC(=O)OCCn2cc(C(=O)NC(=O)OCC)c(=O)[nH]c2=O)c(=O)[nH]c1=O test_target=HOP-18 label_value=inactive
molecule="COc1cccc2c1C1(O)C2CCCC12OCCCO2 (stereo unspecified)" test_target=HOP-18 label_value=inactive
molecule=Nc1nc2c3nc(Nc4ccccc4)sc3nc(=S)n2c2sc(Nc3ccccc3)nc12 test_target=HOP-18 label_value=inactive

Dear all, I need the recorded test outcome for CN1c2ccccc2NC(CC(=O)O)C2CC=CN21 (stereo unspecified) , thank you. active

Dear all, I need the recorded test outcome for O=C(CC1(O)C(=O)Nc2ccccc21)c1ccc(O)cc1 (stereo unspecified) , thank you. inactive

Dear all, I need the recorded test outcome for O=C1/C(=C/c2ccc(Cl)cc2)CCC1CCN1CCOCC1 (stereo unspecified) , thank you. inactive

Dear all, I need the recorded test outcome for CC1(C)COC(c2c(-c3ccccc3)noc2C[S+]([O-])c2ccccc2)=N1 (stereo unspecified) , thank you. inactive
